Target: T1, C-reactive protein (human (produced in the Human Secretome …, UniProt P02741 19-224))
T1 construct: also called CRP; bCRP
T1 sequence (looked up): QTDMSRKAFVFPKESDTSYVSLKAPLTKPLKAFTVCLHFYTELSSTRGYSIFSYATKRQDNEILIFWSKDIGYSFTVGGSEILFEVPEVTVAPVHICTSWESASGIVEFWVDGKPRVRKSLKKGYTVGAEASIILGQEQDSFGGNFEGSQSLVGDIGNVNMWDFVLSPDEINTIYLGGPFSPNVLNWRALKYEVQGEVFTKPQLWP
Assay: SPR Biacore T200, target on CM5 chip, ADAPT injected, 1:1 fit
Method: Sensor-based binding analysis was performed using a Biacore T200 system (GE Healthcare, Stockholm, Sweden). All analyses were conducted using CM-5 sensor chips coated with the target antigen, another irrelevant antigen and HSA. One surface was left as reference. Binding analysis was performed in PBS-T at 25° C. […] Kinetic parameters were determined using the Biacore Insight Evaluation software, assuming a 1:1 binding. […]
// reported Kd for each item listed
measured.endpoint: Kd (nM)

[[record]]
binder = "LKVAKIIAFHELWEYGVSDFYLSLIDKAKTVEGVEALKLHILAALP (designed binder) [ADAPT variant CRP_38]"
measured_endpoint = "Kd"
numeric_result = 52

[[record]]
binder = "LSKAKAQAWHELYYYGVSDFYLSLIDKAKTVEGVEALKLHILAALP (designed binder) [ADAPT variant CRP_23]"
measured_endpoint = "Kd"
numeric_result = 1900

[[record]]
binder = "LHYAKIMAFHELWQYGVSDFYLQLIDKAKTVEGVEALKLHILAALP (designed binder) [ADAPT variant CRP_48]"
measured_endpoint = "Kd"
numeric_result = 62

[[record]]
binder = "LRVAKSMAWHELWSYGVSDFYLRLIDKAKTVEGVEALKLHILAALP (designed binder) [ADAPT variant CRP_09]"
measured_endpoint = "Kd"
numeric_result = 1100


The origin of these recorded values is patent US20230250160A1.
